assay_notes: Inhibitory activity against c-AMP kinase; Did not inhibit c-AMP kinase
measurement_kind: IC50

C=C1O[C@H]2[C@@H]3OC(=O)c4cc(O)c(O)c(O)c4-c4c(cc(O)c(O)c4O)C(=O)OC[C@H]2O[C@@H](OC(=O)c2cc(O)c(O)c(O)c2)[C@@H]3OC(=O)c2cc(O)c(O)c3c2C2C(O)(O3)C3(O)OC4(C(=O)OC5C(O)COC54O)C12CC3=O (some centres undefined)	Not Active
O=C(OC[C@H]1O[C@H](OC(=O)c2cc(O)c(O)c(O)c2)[C@H](OC(=O)c2cc(O)c(O)c(O)c2)[C@@H](OC(=O)c2cc(O)c(O)c(O)c2)[C@@H]1O)c1cc(O)c(O)c(O)c1	Not Active
O=C1OCC2OC(=O)c3cc(O)c(O)c(O)c3-c3c(O)c(O)c(O)c4c3C(=O)OC(C2OC(=O)c2cc(O)c(O)c(O)c2-c2c1cc(O)c(O)c2O)C1OC(=O)c2c-4c(O)c(O)c(O)c2[C@@H]1O (some centres undefined)	Not Active
O=C(O[C@@H]1O[C@@H]2COC(=O)c3cc(O)c(O)c(O)c3-c3c(cc(O)c(O)c3O)C(=O)O[C@H]([C@H]1OC(=O)c1cc(O)c(O)c(O)c1)[C@@H]2OC(=O)c1cc(O)c(O)c(O)c1)c1cc(O)c(O)c(O)c1	Not Active

---

target_entity: Protein kinase C (PKC)
assay_notes: Inhibitory activity against protein kinase C (PKC)
Type: protein assay, Homo sapiens
Note that class boundaries on IC50 are range A = under 10 µM, range B = from 10 µM up to 30 µM, range C = 30 µM and over

Use the examples below as a reference point.
Oc1cc(O)c2c(c1)O[C@H](c1ccc(O)c(O)c1)[C@H](O)[C@H]2c1c(O)cc(O)c2c1O[C@H](c1ccc(O)c(O)c1)[C@H](O)[C@H]2c1c(O)cc(O)c2c1O[C@H](c1ccc(O)c(O)c1)[C@H](O)C2	range C
O=C(OC[C@H]1O[C@H](O)[C@@](O)(COC(=O)c2cc(O)c(O)c(O)c2)[C@@H]1OC(=O)c1cc(O)c(O)c(O)c1)c1cc(O)c(O)c(O)c1	range C
O=C(OC[C@H]1O[C@@H](OC(=O)c2cc(O)c(O)c(O)c2)[C@H](OC(=O)c2cc(O)c(O)c(O)c2)[C@@H](O)[C@@H]1O)c1cc(O)c(O)c(O)c1	range C
O=C1OCC2OC(=O)c3cc(O)c(O)c(O)c3-c3c(O)c(O)c(O)c4c3C(=O)OC(C2OC(=O)c2cc(O)c(O)c(O)c2-c2c1cc(O)c(O)c2O)C1OC(=O)c2c-4c(O)c(O)c(O)c2[C@@H]1[C@@]1(O)O[C@@H](CO)[C@@H](O)[C@H]1O (some centres undefined)	range B

Please indicate the class for O=C(O)C1=C[C@@H](O)[C@@H](O)[C@H](OC(=O)c2cc(O)c(O)c(OC(=O)c3cc(O)c(O)c(O)c3)c2)C1 based on its IC50.
range C

Please give the result for O=C(O[C@@H]1[C@@H](c2c(O)cc(O)c3c2O[C@H](c2ccc(O)c(O)c2)[C@H](OC(=O)c2cc(O)c(O)c(O)c2)C3)c2c(O)cc(O)cc2O[C@@H]1c1ccc(O)c(O)c1)c1cc(O)c(O)c(O)c1 too.
range A

Please give the result for O=C(OC1Cc2c(O)cc(O)cc2O[C@@H]1c1ccc(O)c(O)c1)c1cc(O)c(O)c(O)c1 (some centres undefined) too.
range C

Please give the result for O=C(OC[C@H]1OC(O)[C@@](O)(COC(=O)c2cc(O)c(O)c(O)c2)[C@@H]1O)c1cc(O)c(O)c(O)c1 (some centres undefined) too.
range C

---

target_entity: Protein kinase C (PKC)
assay_notes: Inhibitory activity against protein kinase C (PKC)
Format: protein assay, Homo sapiens
Listing of entries alongside the reported IC50.

Recorded results for 2 compounds are shown here.
O=C1OCC2OC(=O)c3cc(O)c(O)c(O)c3-c3c(O)c(O)c(O)c4c3C(=O)OC(C2OC(=O)c2cc(O)c(O)c(O)c2-c2c1cc(O)c(O)c2O)C1OC(=O)C2C4=C(O)C(=O)C23Oc2cc(O)c4c(c2[C@H]13)O[C@H](c1ccc(O)c(O)c1)[C@@H](O)C4 (stereo partly drawn)	4 µM
O=C(O)C1=C[C@@H](O)[C@@H](O)[C@H](OC(=O)c2cc(O)c(O)c(O)c2)C1	> 100 µM

Please find the next compound below.
Report IC50 for O=C(O[C@H]1[C@H](O)C[C@](OC(=O)c2cc(O)c(O)c(O)c2)(C(=O)O)C[C@H]1OC(=O)c1cc(O)c(O)c(O)c1)c1cc(O)c(O)c(O)c1 please.
> 100 µM

---

Listing of entries alongside the reported Phorbol displacement.
target_entity: Protein kinase C, PKC; classical/novel (Homo sapiens) (UniProt O94806+P17252+P05129+Q05655+P05771+Q02156+P24723+Q15139+Q04759)
assay_notes: Displacement of phorbol [3H]PDBu from protein kinase C; A - Did displace phorbol (PDBu) at 50 uM or less
Format: protein assay

O=C1OCC2OC(=O)c3cc(O)c(O)c(O)c3-c3c(O)c(O)c(O)c4c3C(=O)OC(C2OC(=O)c2cc(O)c(O)c(O)c2-c2c1cc(O)c(O)c2O)C1OC(=O)c2c-4c(O)c(O)c(O)c2[C@H]1O (some centres not stated)	< 50 µM
Oc1cc(O)c2c(c1)O[C@H](c1ccc(O)c(O)c1)[C@H](O)[C@H]2c1c(O)cc(O)c2c1O[C@H](c1ccc(O)c(O)c1)[C@H](O)[C@H]2c1c(O)cc(O)c2c1O[C@H](c1ccc(O)c(O)c1)[C@H](O)C2 [PROCYANIDIN C1]	< 50 µM
O=C(OC[C@H]1O[C@@H](O)[C@H](OC(=O)c2cc(O)c(O)c(O)c2)[C@@H](OC(=O)c2cc(O)c(O)c(O)c2)[C@@H]1OC(=O)c1cc(O)c(O)c(O)c1)c1cc(O)c(O)c(O)c1	< 50 µM
O=C(OC[C@H]1O[C@H](OC(=O)c2cc(O)c(O)c(O)c2)[C@H](OC(=O)c2cc(O)c(O)c(O)c2)[C@@H](OC(=O)c2cc(O)c(O)c(O)c2)[C@@H]1O)c1cc(O)c(O)c(O)c1	< 50 µM
Oc1cc(O)c2c(c1)O[C@H](c1ccc(O)c(O)c1)[C@H](O)[C@H]2c1c(O)cc(O)c2c1O[C@@]1(c3ccc(O)c(O)c3)Oc3cc(O)c4c(c3C2[C@H]1O)O[C@H](c1ccc(O)c(O)c1)[C@H](O)C4c1c(O)cc(O)c2c1O[C@H](c1ccc(O)c(O)c1)[C@H](O)C2 (some centres not stated)	< 50 µM

Report Phorbol displacement for O=C(OC1Cc2c(O)cc(O)c([C@H]3c4c(O)cc(O)c([C@H]5c6c(O)cc(O)cc6O[C@H](c6ccc(O)c(O)c6)[C@@H]5OC(=O)c5cc(O)c(O)c(O)c5)c4O[C@H](c4ccc(O)c(O)c4)C3OC(=O)c3cc(O)c(O)c(O)c3)c2O[C@@H]1c1ccc(O)c(O)c1)c1cc(O)c(O)c(O)c1 (some centres not stated) please.
< 50 µM

Please give the result for CC1(C)CC[C@]2(C(=O)O)CC[C@]3(C)C(=CCC4[C@@]5(C)C[C@@H](O)[C@@H]6OC(=O)c7cc(O)c(O)c(O)c7-c7c(cc(O)c(O)c7O)C(=O)OC[C@@]6(CO)C5CC[C@]43C)C2C1 (some centres not stated) too.
< 50 µM

---

target_entity: Protein kinase C (PKC)
assay_notes: Inhibitory activity against protein kinase C (PKC)
Assay type: protein assay, Homo sapiens
Listing of entries alongside the reported IC50.
Use µM as the unit, but write only the number.

O=C(OC[C@H]1O[C@H](OC(=O)c2cc(O)c(O)c(O)c2)[C@H](OC(=O)c2cc(O)c(O)c(O)c2)[C@@H](OC(=O)c2cc(O)c(O)c(O)c2)[C@@H]1O)c1cc(O)c(O)c(O)c1	20

Please find the next compound below.
Report IC50 for C=C1O[C@H]2[C@@H]3OC(=O)c4cc(O)c(O)c(O)c4-c4c(cc(O)c(O)c4O)C(=O)OC[C@H]2O[C@@H](OC(=O)c2cc(O)c(O)c(O)c2)[C@@H]3OC(=O)c2cc(O)c(O)c3c2C2C(O)(O3)C3(O)OC4(C(=O)OC5C(O)COC54O)C12CC3=O (stereo partly drawn) please.
17

---

target_entity: Protein kinase C (PKC)
assay_notes: Inhibitory activity against protein kinase C (PKC)
Format: protein assay, Homo sapiens
measurement_kind: log10(IC50) (log10 of the value in µM)
Log scale reminder: IC50 in µM, then log10 taken.

Oc1cc(O)c2c(c1)O[C@@]1(c3ccc(O)c(O)c3)Oc3cc(O)c4c(c3C2[C@H]1O)O[C@H](c1ccc(O)c(O)c1)[C@H](O)C4c1c(O)cc(O)c2c1O[C@H](c1ccc(O)c(O)c1)[C@H](O)C2 (stereo partly specified)	1.48
O=C(O)C[C@@H]1C(=O)O[C@H]2[C@H](OC(=O)c3cc(O)c(O)c(O)c3)[C@@H](OC(=O)c3cc(O)c(O)c4c3[C@H]1[C@H](O)C(=O)O4)[C@@H](OC(=O)c1cc(O)c(O)c(O)c1)O[C@@H]2COC(=O)c1cc(O)c(O)c(O)c1	1.48

Please find the next molecule below.
Report log10(IC50) for O=C(OC[C@H]1O[C@@H](O)[C@H](OC(=O)c2cc(O)c(O)c(O)c2)[C@@H](OC(=O)c2cc(O)c(O)c(O)c2)[C@@H]1OC(=O)c1cc(O)c(O)c(O)c1)c1cc(O)c(O)c(O)c1 please.
1.91
